- target.of.assay: IL-1β:IL-1RI:IL-1RAcP complex (Homo sapiens, UniProt P01584+P14778)
- Sequence (P01584 117-269): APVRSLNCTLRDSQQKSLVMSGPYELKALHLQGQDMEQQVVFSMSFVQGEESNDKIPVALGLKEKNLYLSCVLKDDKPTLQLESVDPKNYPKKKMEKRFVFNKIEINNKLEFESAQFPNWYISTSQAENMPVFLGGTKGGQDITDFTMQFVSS
- Sequence (P14778 18-332 limits assumed): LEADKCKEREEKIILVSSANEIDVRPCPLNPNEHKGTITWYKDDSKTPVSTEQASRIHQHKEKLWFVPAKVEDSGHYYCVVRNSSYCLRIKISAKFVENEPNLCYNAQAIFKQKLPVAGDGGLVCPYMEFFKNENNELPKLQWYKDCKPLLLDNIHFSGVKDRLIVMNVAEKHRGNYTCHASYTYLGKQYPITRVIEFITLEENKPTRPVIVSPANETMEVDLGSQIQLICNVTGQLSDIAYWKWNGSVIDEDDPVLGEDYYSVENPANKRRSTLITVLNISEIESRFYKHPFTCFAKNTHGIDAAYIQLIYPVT
- assay.info: Receptor complex immunoprecipitation pull-down with IL-1β western blot
- Assay type: biochemical
- run.parameters: His-tagged IL-1RAcP pull-down, IL-1β western blot band intensity relative to positive control, non-linear regression of dose response; read-out: IC50, inhibition of IL-1β complex formation
Where no end group is shown, it is not given here.
measured.endpoint: IC50 (nM)
Form entry: value (nM) — number only.

Provide IL-1β:IL-1RI:IL-1RAcP complex (Homo sapiens, UniProt P01584+P14778) IC50 reading for TINESISHSRTEDETRMQILS [Peptide 3.0] . 0.304
